# Tested on: SK-OV-3
# protocol_text: Cytotoxicity against human SKOV3 cells assessed as reduction in cell viability after 48 hrs by neutral red uptake assay
# Type: cell-based
# protocol_conditions: sk-ov-3, 48 h
metric: Activity

Please review the entries below; each comes with its answer.
N[C@@H](Cc1c[nH]c(-c2ccc(-c3ccccc3)cc2)n1)C(=O)N[C@@H](Cc1c[nH]c2ccccc12)C(=O)N[C@@H](Cc1c[nH]c(-c2ccc(-c3ccccc3)cc2)n1)C(=O)NCc1ccccc1    > 10 µg/mL
CC(C)(C)OC(=O)N[C@@H](Cc1c[nH]c(-c2ccc(C(C)(C)C)cc2)n1)C(=O)N[C@@H](Cc1c[nH]c2ccccc12)C(=O)N[C@@H](Cc1c[nH]c(-c2ccc(C(C)(C)C)cc2)n1)C(=O)NCc1ccccc1    > 10 µg/mL
Cc1ccc(-c2nc(C[C@H](NC(=O)OC(C)(C)C)C(=O)N[C@@H](Cc3c[nH]c4ccccc34)C(=O)N[C@@H](Cc3c[nH]c(-c4ccc(C)cc4)n3)C(=O)NCc3ccccc3)c[nH]2)cc1    > 10 µg/mL
COC(=O)[C@H](Cc1c[nH]c(-c2ccc(-c3ccccc3)cc2)n1)NC(=O)[C@H](Cc1c[nH]c2ccccc12)NC(=O)[C@H](Cc1c[nH]c(-c2ccc(-c3ccccc3)cc2)n1)NC(=O)OC(C)(C)C    > 10 µg/mL

Now let's try a different one.
# input # get_value(readout='Activity', item= `N[C@@H](Cc1c[nH]c(-c2ccccc2)n1)C(=O)N[C@@H](Cc1c[nH]c2ccccc12)C(=O)N[C@@H](Cc1c[nH]c(-c2ccccc2)n1)C(=O)NCc1ccccc1` )
# output > 10 µg/mL

###

# protocol_text: Selectivity index, ratio of cytotoxicity against human SK-MEL cells to IC50 for Cryptococcus neoformans ATCC 90113
# Assay type: toxicity, cell-based
# protocol_conditions: read-out: Selectivity Index
Kindly supply the reported selectivity ratio values for the records listed here.

COC(=O)[C@H](Cc1c[nH]c(-c2ccc(C(C)(C)C)cc2)n1)NC(=O)[C@H](Cc1c[nH]c2ccccc12)NC(=O)[C@@H](N)Cc1c[nH]c(-c2ccc(C(C)(C)C)cc2)n1    > 12

// each listed compound needs a value for selectivity ratio
1. N[C@@H](Cc1c[nH]c(-c2ccc(-c3ccccc3)cc2)n1)C(=O)N[C@@H](Cc1c[nH]c2ccccc12)C(=O)N[C@@H](Cc1c[nH]c(-c2ccc(-c3ccccc3)cc2)n1)C(=O)NCc1ccccc1
2. Cc1ccc(-c2nc(C[C@H](NC(=O)[C@H](Cc3c[nH]c4ccccc34)NC(=O)[C@@H](N)Cc3c[nH]c(-c4ccc(C)cc4)n3)C(=O)NCc3ccccc3)c[nH]2)cc1

# output
1: > 7.1; 2: > 1.8

###

Give measured selectivity ratio for each item. Keep answers brief.
# protocol_text: Selectivity index, ratio of cytotoxicity against pig LLC-PK1 cells to IC50 for Staphylococcus aureus ATCC 29213
# Assay type: toxicity, cell-based
# protocol_conditions: read-out: Selectivity Index

CC(C)(C)c1ccc(-c2nc(C[C@H](NC(=O)[C@H](Cc3c[nH]c4ccccc34)NC(=O)[C@@H](N)Cc3c[nH]c(-c4ccc(C(C)(C)C)cc4)n3)C(=O)NCc3ccccc3)c[nH]2)cc1    > 2.68
COC(=O)[C@H](Cc1c[nH]c(-c2ccc(-c3ccccc3)cc2)n1)NC(=O)[C@H](Cc1c[nH]c2ccccc12)NC(=O)[C@@H](N)Cc1c[nH]c(-c2ccc(-c3ccccc3)cc2)n1    > 3.9
CC(C)(C)OC(=O)N[C@@H](Cc1c[nH]c(-c2ccccc2)n1)C(=O)N[C@@H](Cc1c[nH]c2ccccc12)C(=O)N[C@@H](Cc1c[nH]c(-c2ccccc2)n1)C(=O)NCc1ccccc1    > 1.3

Would you kindly look at the next entry?
# input Which selectivity ratio value belongs to `COC(=O)[C@H](Cc1c[nH]c(-c2ccc(C(C)(C)C)cc2)n1)NC(=O)[C@H](Cc1c[nH]c2ccccc12)NC(=O)[C@@H](N)Cc1c[nH]c(-c2ccc(C(C)(C)C)cc2)n1` ?
# output > 2.3

###

# protocol_text: Selectivity index, ratio of cytotoxicity against human SK-MEL cells to IC50 for methicillin-resistant Staphylococcus aureus ATCC 33591
# Type: toxicity, cell-based
# protocol_conditions: read-out: Selectivity Index
metric: selectivity ratio

COC(=O)[C@H](Cc1c[nH]c(-c2ccc(-c3ccccc3)cc2)n1)NC(=O)[C@H](Cc1c[nH]c2ccccc12)NC(=O)[C@@H](N)Cc1c[nH]c(-c2ccc(-c3ccccc3)cc2)n1    > 5.18

For each of the molecules below, state selectivity ratio.
1. COC(=O)[C@H](Cc1c[nH]c(-c2ccc(C(C)(C)C)cc2)n1)NC(=O)[C@H](Cc1c[nH]c2ccccc12)NC(=O)[C@@H](N)Cc1c[nH]c(-c2ccc(C(C)(C)C)cc2)n1
2. CC(C)(C)c1ccc(-c2nc(C[C@H](NC(=O)[C@H](Cc3c[nH]c4ccccc34)NC(=O)[C@@H](N)Cc3c[nH]c(-c4ccc(C(C)(C)C)cc4)n3)C(=O)NCc3ccccc3)c[nH]2)cc1

# output
1: > 1.49; 2: > 1.49

###

# System: Staphylococcus aureus
# protocol_text: Antibacterial activity against Staphylococcus aureus ATCC 29213 after […] hrs by alamar blue dye based CLSI method
# Type: functional
Task for the reader: assign each of the following molecules its reported MBC.

Example results:
CC(C)(C)c1ccc(-c2nc(C[C@H](NC(=O)[C@H](Cc3c[nH]c4ccccc34)NC(=O)[C@@H](N)Cc3c[nH]c(-c4ccc(C(C)(C)C)cc4)n3)C(=O)NCc3ccccc3)c[nH]2)cc1    20 µg/mL
COC(=O)[C@H](Cc1c[nH]c(-c2ccc(C(C)(C)C)cc2)n1)NC(=O)[C@H](Cc1c[nH]c2ccccc12)NC(=O)[C@@H](N)Cc1c[nH]c(-c2ccc(C(C)(C)C)cc2)n1    > 20 µg/mL
COC(=O)[C@H](Cc1c[nH]c(-c2ccc(-c3ccccc3)cc2)n1)NC(=O)[C@H](Cc1c[nH]c2ccccc12)NC(=O)[C@@H](N)Cc1c[nH]c(-c2ccc(-c3ccccc3)cc2)n1    > 20 µg/mL

# input What does the record list as MBC for `CC(C)(C)OC(=O)N[C@@H](Cc1c[nH]c(-c2ccccc2)n1)C(=O)N[C@@H](Cc1c[nH]c2ccccc12)C(=O)N[C@@H](Cc1c[nH]c(-c2ccccc2)n1)C(=O)NCc1ccccc1` ?
# output > 20 µg/mL

###

Give measured selectivity ratio for each item. Keep answers brief.
# protocol_text: Selectivity index, ratio of cytotoxicity against pig LLC-PK1 cells to IC50 for methicillin-resistant Staphylococcus aureus ATCC 33591
# Assay type: toxicity, cell-based
# protocol_conditions: read-out: Selectivity Index

Example entries and their recorded answers appear below.
COC(=O)[C@H](Cc1c[nH]c(-c2ccc(-c3ccccc3)cc2)n1)NC(=O)[C@H](Cc1c[nH]c2ccccc12)NC(=O)[C@@H](N)Cc1c[nH]c(-c2ccc(-c3ccccc3)cc2)n1    > 5.18
CC(C)(C)c1ccc(-c2nc(C[C@H](NC(=O)[C@H](Cc3c[nH]c4ccccc34)NC(=O)[C@@H](N)Cc3c[nH]c(-c4ccc(C(C)(C)C)cc4)n3)C(=O)NCc3ccccc3)c[nH]2)cc1    > 1.49

From here, focus on the item given below.
# input Recorded selectivity ratio for `COC(=O)[C@H](Cc1c[nH]c(-c2ccc(C(C)(C)C)cc2)n1)NC(=O)[C@H](Cc1c[nH]c2ccccc12)NC(=O)[C@@H](N)Cc1c[nH]c(-c2ccc(C(C)(C)C)cc2)n1` , please?
# output > 1.49

###

# protocol_text: Selectivity index, ratio of cytotoxicity against human SKOV3 cells to IC50 for Cryptococcus neoformans ATCC 90113
# Format: toxicity, cell-based
# protocol_conditions: read-out: Selectivity Index
Residues, ends and D or L forms follow the SMILES beside them. *: point of attachment. Boc = CC(C)(C)OC(=O)*; NHBn = c1ccc(CN*)cc1
Answer each item with its documented selectivity ratio.

Return reported selectivity ratio values for all items listed beneath this line.
1. CC(C)(C)OC(=O)N[C@@H](Cc1cnc[nH]1)C(=O)N[C@@H](Cc1c[nH]c2ccccc12)C(=O)N[C@@H](Cc1cnc[nH]1)C(=O)NCc1ccccc1 (Boc-His-Trp-His-NHBn)
2. COC(=O)[C@H](Cc1c[nH]c(-c2ccc(C(C)(C)C)cc2)n1)NC(=O)[C@H](Cc1c[nH]c2ccccc12)NC(=O)[C@@H](N)Cc1c[nH]c(-c2ccc(C(C)(C)C)cc2)n1
3. CC(C)(C)c1ccc(-c2nc(C[C@H](NC(=O)[C@H](Cc3c[nH]c4ccccc34)NC(=O)[C@@H](N)Cc3c[nH]c(-c4ccc(C(C)(C)C)cc4)n3)C(=O)NCc3ccccc3)c[nH]2)cc1
4. Cc1ccc(-c2nc(C[C@H](NC(=O)[C@H](Cc3c[nH]c4ccccc34)NC(=O)[C@@H](N)Cc3c[nH]c(-c4ccc(C)cc4)n3)C(=O)NCc3ccccc3)c[nH]2)cc1
5. N[C@@H](Cc1cnc[nH]1)C(=O)N[C@@H](Cc1c[nH]c2ccccc12)C(=O)N[C@@H](Cc1cnc[nH]1)C(=O)NCc1ccccc1 (H-His-Trp-His-NHBn)
6. CC(C)(C)OC(=O)N[C@@H](Cc1c[nH]c(-c2ccccc2)n1)C(=O)N[C@@H](Cc1c[nH]c2ccccc12)C(=O)N[C@@H](Cc1c[nH]c(-c2ccccc2)n1)C(=O)NCc1ccccc1

# output
> 12.5
> 12
> 3.8
> 1.8
> 1.2
> 7.1

Lab note: each compound below needs its selectivity ratio filled in.
1. COC(=O)[C@H](Cc1c[nH]c(-c2ccc(-c3ccccc3)cc2)n1)NC(=O)[C@H](Cc1c[nH]c2ccccc12)NC(=O)[C@@H](N)Cc1c[nH]c(-c2ccc(-c3ccccc3)cc2)n1
2. COC(=O)[C@H](Cc1c[nH]c(-c2ccc(C(C)(C)C)cc2)n1)NC(=O)[C@H](Cc1c[nH]c2ccccc12)NC(=O)[C@H](Cc1c[nH]c(-c2ccc(C(C)(C)C)cc2)n1)NC(=O)OC(C)(C)C
3. N[C@@H](Cc1c[nH]c(-c2ccc(-c3ccccc3)cc2)n1)C(=O)N[C@@H](Cc1c[nH]c2ccccc12)C(=O)N[C@@H](Cc1c[nH]c(-c2ccc(-c3ccccc3)cc2)n1)C(=O)NCc1ccccc1
4. COC(=O)[C@H](Cc1c[nH]c(-c2ccccc2)n1)NC(=O)[C@H](Cc1c[nH]c2ccccc12)NC(=O)[C@@H](N)Cc1c[nH]c(-c2ccccc2)n1
5. COC(=O)[C@H](Cc1c[nH]c(-c2ccccc2)n1)NC(=O)[C@H](Cc1c[nH]c2ccccc12)NC(=O)[C@H](Cc1c[nH]c(-c2ccccc2)n1)NC(=O)OC(C)(C)C
6. COc1ccc(-c2nc(C[C@H](NC(=O)[C@H](Cc3c[nH]c4ccccc34)NC(=O)[C@@H](N)Cc3c[nH]c(-c4ccc(OC)cc4)n3)C(=O)NCc3ccccc3)c[nH]2)cc1
7. COC(=O)[C@H](Cc1c[nH]cn1)NC(=O)[C@H](Cc1c[nH]c2ccccc12)NC(=O)[C@@H](N)Cc1c[nH]cn1 (H-His-Trp-His-OMe)

# output
> 28.6
> 7.9
> 7.1
> 2.7
> 1.1
> 1.4
> 1
